Origin of the recorded values: the supplement of paper PMC9170038

# System: MS2 coat protein
# TEST_SUMMARY: apparent KD of MS2 coat protein, switch OFF state (with FMN for OFF switches, without FMN for ON switches); designed switch direction (-1 OFF switch, 1 ON switch): 1; higher = weaker reporter binding
# CONDITION_SET: FMN input: 0 or 200 uM; Eterna round: R93 (includes R88 designs)
Entries and their apparent KD of MS2 coat protein values follow.

SEQ: AAGAAACAUGAGGAUCACCCAUGUAAAUAAAACACAGGAUAUCGAAUAUGGGAGAUUUAACGAGAAGGGUGAAGAA [Meechl MS2 SS1 3]
apparent KD of MS2 coat protein (nM): 87.7

SEQ: AGAAAUAAAAGCUAGGAUAUCCAAAAGAAAACAUGAGGAUCACCCAUGUAAAAGAAAAUAAAGUGGGAGAAGGAGCAAAAUAAGA [Starry modified]
apparent KD of MS2 coat protein (nM): 35.6

SEQ: AAGAAACAUGAGGAUCACCCAUGUACCCAAAAGGGAGGAUAUCCGAAAGAAAGAAAGAAAGGAGAAGGCCCAUGAA [Xerxes II]
apparent KD of MS2 coat protein (nM): 34.2

SEQ: AGGAAACAUGAGGAUCACCCAUGUAUAAAAAUGGGAGGAUAUACUAAGACGAAAGUCAUAGUAGAAGGCCUAAAAA [76%, Meechl, 8]
apparent KD of MS2 coat protein (nM): 52.6

SEQ: AAAAAACAUGAGGAUCACCCAUGUAAAAAAAUCACAGGAUAUAAGGUCGCGAAAGCGACCUUAGAAGGGUGAUCAA
apparent KD of MS2 coat protein (nM): 421

SEQ: GAGAAGGAGAGAGAGGAUAUCCAAAGGAAAACAUGAGGAUCACCCAUGUAAAAGGUAGGAAAUUGGGAGAAGGCUCAAGAGAGAG [salish99-ss2-108(!)]
apparent KD of MS2 coat protein (nM): 34.3
